Target: T1, monocyte chemo-attractant protein-1 (MCP-1) (Homo sapiens (Human)., UniProt P13500)
T1 construct: MCP-1 (monocyte chemo-attractant protein-1), chemokine; synthetic gene optimised for E. coli in pET26b; Probably the mature human chemokine, as in PDB 2BDN; also called monocyte chemotactic protein-1; antigen; source: E. coli Rosetta2 (DE3), purified (Ni-NTA, SEC)
Experiment: SPR; Biacore T200; MCP-1 immobilised on a CM5 chip by amine coupling (~220 RU), scFv injected at 30 µl/min; PBS with 0.005% Tween-20; 25°C; global fit, 1:1 Langmuir model; KD from koff/kon
Conditions: both partners purified
property: kon (M⁻¹ s⁻¹)
The answer is to be given in M⁻¹ s⁻¹; state only the numeric part.

Recorded results for 2 binders are shown here.
11K2 scFv mutein L-S53E (scFv, V domains shown, PDB 2BDN heavy chain; PDB 2BDN light chain) with the stated change) VH: EVQLQQSGAELVKAGASVKLSCPASGLNIKDTYMHWVKQRPEQGLEWIGRIDPANGNTKFDPKFQGKATITADTSSNTAYLQLSSLTSEDTAVYYCARGVFGFFDYWGQGTTLTVSS VL: DIQMTQSSSSFSVSLGDRVTITCKATEDIYNRLAWYQQKPGSAPRLLISGATELETGVPSRFSGSGSGKDYTLSITSLQTEDVATYYCQQFWSAPYTFGGGTKLEIK    73000
wild-type 11K2 scFv (scFv, V domains shown, VH of antibody 11K2; also the variable domain of the heavy chain of the 11K2 Fab in PDB 2BDN; linker of the scFv; VL of antibody 11K2; also the variable domain of the light chain of the 11K2 Fab in PDB 2BDN; also called WT; scFv 11K2) VH: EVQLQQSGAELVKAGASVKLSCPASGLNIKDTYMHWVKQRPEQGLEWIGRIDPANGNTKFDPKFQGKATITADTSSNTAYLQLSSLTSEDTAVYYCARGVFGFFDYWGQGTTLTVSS VL: DIQMTQSSSSFSVSLGDRVTITCKATEDIYNRLAWYQQKPGSAPRLLISGATSLETGVPSRFSGSGSGKDYTLSITSLQTEDVATYYCQQFWSAPYTFGGGTKLEIK    140000

Here is another binder to look at.
For the binder 11K2 scFv mutein L-N31R (scFv, V domains shown, PDB 2BDN heavy chain; PDB 2BDN light chain) with the stated change; also called L-D31R (printed once in the results)) VH: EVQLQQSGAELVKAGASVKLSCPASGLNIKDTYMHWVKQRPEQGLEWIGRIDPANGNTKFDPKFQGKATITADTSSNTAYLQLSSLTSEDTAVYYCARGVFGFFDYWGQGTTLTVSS VL: DIQMTQSSSSFSVSLGDRVTITCKATEDIYRRLAWYQQKPGSAPRLLISGATSLETGVPSRFSGSGSGKDYTLSITSLQTEDVATYYCQQFWSAPYTFGGGTKLEIK , give its measured kon value.
130000
